Listed here: items and their measured result_ITMP.
tested on: Vero-E6; experiment: primary screen, phospholipidosis by LipidTOX staining; higher = more effect of the substance; conditions: 10 µM
Out of some 5,400 compounds screened, about 190 (3.5%) showed an effect of 50% or more. What follows is part of a selection rich in strong results, with near analogues and random picks from the rest.
experimentalReadout: result_ITMP (%)

> print(dat)
                                   compound  assaytarget  assayvalue
1  CO/N=C(\C(=O)N[C@@H]1C(=O)N2C(C(=O)[O-])=C(COC(N)=O)CS[C@H]12)c1ccco1      Vero-E6       -1.04
2  Cc1ccc(C)c(Oc2ccncc2C(=O)N2CCN(C3CC3)c3ccccc32)c1      Vero-E6       -4.61
3               CCOC(=O)c1cc2ccc(O)cc2oc1=O      Vero-E6       -3.11
4  Cn1nccc1Nc1nccc(-c2ccn([C@H](CO)c3ccc(Cl)c(F)c3)c(=O)c2)n1 [R4A_0003897_001 / SPE_A20830788]      Vero-E6        1.66
5  COc1ccc(C(=O)c2c(C)n(CCN3CCOCC3)c3ccccc23)cc1      Vero-E6        0.58
